# assayed-system: human Orexin 1 receptor (Homo sapiens)
# Construct: stably expressing the full-length human Orexin 1 receptor; expressed in transfected cells; host or cells: CHO-K1 (CHO-K1/hOx1), co-expressing the aequorin photoprotein
# Sequence (O43613 1-425): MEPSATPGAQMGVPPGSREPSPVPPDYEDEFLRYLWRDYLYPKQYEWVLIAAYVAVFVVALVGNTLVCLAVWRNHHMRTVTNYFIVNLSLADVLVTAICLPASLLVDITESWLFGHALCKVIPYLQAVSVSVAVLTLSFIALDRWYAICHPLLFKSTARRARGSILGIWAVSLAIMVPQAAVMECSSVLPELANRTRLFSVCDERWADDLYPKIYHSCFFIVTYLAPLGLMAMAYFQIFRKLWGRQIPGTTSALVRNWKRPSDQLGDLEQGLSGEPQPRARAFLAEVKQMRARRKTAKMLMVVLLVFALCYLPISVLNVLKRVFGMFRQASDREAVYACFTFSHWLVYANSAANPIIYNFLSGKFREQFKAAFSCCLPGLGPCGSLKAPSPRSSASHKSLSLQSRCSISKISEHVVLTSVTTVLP
# procedure-details: Assay A: OX1R IP1 (in vitro OX1R potency)
# Type: cell-based
# condition-info: Table 3; 0.5 nM Orexin A; read-out: Assay A OX1R Kb (Orexin A concentration)
# Description: Activation of the orexin receptors expressed in cell lines results in an increase in intracellular IP3 concentration. IP1, a downstream metabolite of IP3, accumulates in cells following receptor activation and is stable in the presence of LiCl. Using Homogeneous Time-Resolved Fluorescence technology with Lumi4-Tb cryptate (commercially available from Cisbio Bioassay.) and a suitable fluorescence plate reader. […]
value-kind: Kb (nM)
Answers are plain numbers, in nM.

Examples with answers:
> print(dat)
                                  structure  value.kind  value
1  CCN(C(=O)c1ccc(C)cc1-c1nnc(C)o1)[C@@H](C)COc1ncc(C(F)(F)F)cn1          Kb    7.3
2  CCN(C(=O)c1cc(OC)ccc1-n1nccn1)[C@@H](C)COc1ncc(C(F)(F)F)cn1          Kb   0.97
3  CCN(C(=O)c1ccc(F)cc1-n1nccn1)[C@@H](C)COc1ncc(C(F)(F)F)cn1          Kb    4.5

Please state, for each entry, its recorded Kb.
1. CCN(C(=O)c1cccc(F)c1-n1nccn1)[C@@H](C)COc1ncc(Br)cn1
2. CCN(C(=O)c1c(-n2nccn2)ccc(C)c1F)[C@@H](C)COc1ncc(C(F)(F)F)cn1
3. CCN(C(=O)c1ccccc1-c1noc(C)n1)[C@@H](C)COc1ncc(C(F)(F)F)cn1
4. CCN(C(=O)c1ccccc1-c1ncco1)[C@@H](C)COc1ncc(C(F)(F)F)cn1
5. CCN(C(=O)c1ccc(F)c(F)c1-n1nccn1)[C@@H](C)COc1ncc(C(F)(F)F)cn1

Result:
1: 2; 2: 1.8; 3: 2.1; 4: 3.2; 5: 2.5
